protocol-notes: CCTE_Shafer_MEA_dev_network_spike_number: CCTE's Neural Network Formation Assay for Number of Network Spikes, Shafer Lab (AID 2284048);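 further: synchronized bursts across electrodes counted on days 5 7 9 12 and integrated as AUC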
Active and inactive are the calls of the source. How the source made its calls: active means hit-call score of the fitted dose curve at least 0.9, where 1 is the maximum; inactive means score below 0.9.
Thanks in advance; please answer with one of these: TRUE (active), FALSE (inactive)

Problem: Recorded test call requested for `CC(=O)[O-].[Tl+]`
Result: FALSE

Problem: Recorded test call requested for CCOP(=O)(O)OCC (tested in a mixture with another compound)
Result: FALSE

Problem: Recorded test call requested for CCCCC(CC)COC(=O)c1cc(Br)c(Br)c(Br)c1Br (stereo not given)
Result: FALSE

Problem: Recorded test call requested for `Brc1ccc(Oc2cc(Br)c(Br)cc2Br)c(Br)c1`
Result: FALSE

Problem: Recorded test call requested for `C#CCN(C)[C@H](C)Cc1ccccc1`
Result: FALSE

Problem: Recorded test call requested for `CC(C)CCCCCCCOP(=O)(Oc1ccccc1)Oc1ccccc1`
Result: FALSE

Problem: Recorded test call requested for `COP(=O)(OC)SCN1C(=O)c2ccccc2C1=O`
Result: FALSE

Problem: Recorded test call requested for CNC(=N[N+](=O)[O-])NCC1CCOC1 (stereo not given)
Result: FALSE

Problem: Recorded test call requested for `[Cd+2].[Cl-].[Cl-]`
Result: TRUE

Problem: Recorded test call requested for `[CH3][Hg][Cl]`
Result: TRUE

Problem: Recorded test call requested for `C[C@H](N)Cc1ccccc1`
Result: FALSE

Problem: Recorded test call requested for CCOP(=S)(OCC)SCS(=O)C(C)(C)C (stereo not given)
Result: FALSE

Problem: Recorded test call requested for `O.O.O.O.O.[Cd+2].[Cd+2].[Cl-].[Cl-].[Cl-].[Cl-]`
Result: TRUE

====

protocol-notes: CCTE_Mundy_HCI_hNP1_Casp3_7: CCTE's Caspase-Glo 3/7 Assay in human neuroprogenitor cells for Apoptosis, Mundy Lab (AID 2284240)
The source made the active and inactive calls. The calls were made as follows: active = hit-call score of the fitted dose curve at least 0.9, where 1 is the maximum; inactive = score below 0.9.
Thanks in advance; please answer with one of these: active, inactive

Past entries and their recorded results:
compound | label-class
CCOP(=S)(OCC)SCS(=O)C(C)(C)C (configuration not stated) | inactive
COP(=O)(OC)SCN1C(=O)c2ccccc2C1=O | inactive
COC(=O)[C@H]1[C@@H](OC(=O)c2ccccc2)C[C@@H]2CC[C@H]1N2C | inactive

Problem: Recorded test call requested for `CN1C(=O)CN=C(c2ccccc2)c2cc(Cl)ccc21`
Result: active

Problem: Recorded test call requested for `[CH3][Sn]([CH3])[CH3]`
Result: active

Problem: Recorded test call requested for `CC1(C)[C@H](C=C(Cl)Cl)[C@H]1C(=O)OCc1c(F)c(F)cc(F)c1F`
Result: active

Problem: Recorded test call requested for `CCOP(=O)(OCC)SCSCC`
Result: inactive

====

protocol-notes: BSK_LPS_SRB: Viability Assessment in the BioMAP Diversity Plus: LPS Assay (AID 2283079);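 further: total protein by sulforhodamine B absorbance as a cytotoxicity measure; measured one day after compound addition; fitted in both directions against DMSO so loss or gain of signal counts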
measurement-conditions: primary human HUVEC with PBMC
The source made the active and inactive calls. Rule for the calls: active = hit-call score of the fitted dose curve at least 0.9, where 1 is the maximum; inactive = score below 0.9.
Thanks in advance; please answer with one of these: yes for active, no for inactive

compound | label-class
C=CCN(CC=C)C(=O)C(Cl)Cl | no

Problem: Recorded test call requested for CCC(C)c1cc([N+](=O)[O-])cc([N+](=O)[O-])c1OC(=O)C=C(C)C (stereo unspecified)
Result: yes

Problem: Recorded test call requested for `O=C1C=CC(=O)C=C1`
Result: no

Problem: Recorded test call requested for `O=C(O)CCCc1ccc(N(CCCl)CCCl)cc1`
Result: yes

Problem: Recorded test call requested for `CC1(C)[C@H](C(=O)O[C@H](C#N)c2cccc(Oc3ccccc3)c2)[C@@H]1C=C(Br)Br`
Result: no

Problem: Recorded test call requested for `O=c1[nH]c(Cl)c(Cl)cc1Cl`
Result: no

====

protocol-notes: CCTE_Shafer_MEA_dev_burst_rate: CCTE's Neural Network Formation Assay for Burst Rate, Shafer Lab (AID 2284042)
Activity calls are given as the source filed them. Rule for the calls: active = hit-call score of the fitted dose curve at least 0.9, where 1 is the maximum; inactive = score below 0.9.
Thanks in advance; please answer with one of these: active, inactive

Past entries and their recorded results:
molecule | label-class
CCC1(c2ccccc2)C(=O)NC(=O)NC1=O | inactive
COP(=O)(OC)SCN1C(=O)c2ccccc2C1=O | inactive
O=C(O)CNCP(=O)(O)O | inactive

Problem: Recorded test call requested for `CCC[CH2][Sn]([CH2]CCC)([CH2]CCC)[O][Sn]([CH2]CCC)([CH2]CCC)[CH2]CCC`
Result: active

Problem: Recorded test call requested for `CN1C(=O)CN=C(c2ccccc2)c2cc(Cl)ccc21`
Result: inactive

Problem: Recorded test call requested for `C[n+]1ccc(-c2cc[n+](C)cc2)cc1`
Result: active

Problem: Recorded test call requested for CCOP(=O)(O)OCC (tested in a mixture with another compound)
Result: inactive

Problem: Recorded test call requested for `C#CCN(C)[C@H](C)Cc1ccccc1`
Result: inactive

Problem: Recorded test call requested for `CP(=O)(O)CC[C@H](N)C(=O)O`
Result: inactive

Problem: Recorded test call requested for `CC(C)CCCCCCCOP(=O)(Oc1ccccc1)Oc1ccccc1`
Result: inactive

Problem: Recorded test call requested for `CN[C@]1(c2ccccc2Cl)CCCCC1=O`
Result: inactive

Problem: Recorded test call requested for CCOP(=O)(Oc1cnc(C(C)(C)C)nc1)OC(C)C (stereo not given)
Result: inactive

Problem: Recorded test call requested for `Cn1nc(C(F)(F)F)c(CS(=O)(=O)C2=NOC(C)(C)C2)c1OC(F)F`
Result: inactive

Problem: Recorded test call requested for CCOP(=S)(OCC)SCS(=O)C(C)(C)C (stereo not given)
Result: inactive

Problem: Recorded test call requested for CC1(C)C(C=C(Cl)c2ccc(Cl)cc2)C1C(=O)OC(C#N)c1ccc(F)c(Oc2ccccc2)c1 (stereo not given)
Result: active

Problem: Recorded test call requested for `Brc1ccc(Oc2cc(Br)c(Br)cc2Br)c(Br)c1`
Result: inactive

Problem: Recorded test call requested for `O.O.O.O.O.[Cd+2].[Cd+2].[Cl-].[Cl-].[Cl-].[Cl-]`
Result: active

Problem: Recorded test call requested for CCOP(=O)(OCC)OC(Cl)C(Cl)(Cl)Cl (stereo not given)
Result: active

Problem: Recorded test call requested for `[CH3][Hg][Cl]`
Result: active

Problem: Recorded test call requested for `CC(=O)[O-].[Tl+]`
Result: inactive

====

protocol-notes: BSK_4H_SRB: Viability Assessment in the BioMAP Diversity Plus: 4H Assay (AID 2283027);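 further: cells exposed to compound for 24 h before staining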
measurement-conditions: primary human endothelial cells (HUVEC)
The source made the active and inactive calls. The calls were made as follows: active = hit-call score of the fitted dose curve at least 0.9, where 1 is the maximum; inactive = score below 0.9.
Thanks in advance; please answer with one of these: active, inactive

compound | label-class
Cc1ccc(OP(=O)(Oc2ccc(C)cc2)Oc2ccc(C)cc2)cc1 (tested in a mixture with another compound) | inactive
COc1ccc(CO)cc1 | inactive
Clc1ccc(-c2ccccc2)cc1 | active

Problem: Recorded test call requested for `CCCC[N+](CCCC)(CCCC)CCCC`
Result: inactive

Problem: Recorded test call requested for `CC(C)CCCCCCCOC(=O)c1ccccc1C(=O)OCCCCCCCC(C)C`
Result: inactive

====

assayed-system: Cellular tumor antigen p53 (Homo sapiens) (UniProt P04637)
Sequence (P04637 whole entry, looked up): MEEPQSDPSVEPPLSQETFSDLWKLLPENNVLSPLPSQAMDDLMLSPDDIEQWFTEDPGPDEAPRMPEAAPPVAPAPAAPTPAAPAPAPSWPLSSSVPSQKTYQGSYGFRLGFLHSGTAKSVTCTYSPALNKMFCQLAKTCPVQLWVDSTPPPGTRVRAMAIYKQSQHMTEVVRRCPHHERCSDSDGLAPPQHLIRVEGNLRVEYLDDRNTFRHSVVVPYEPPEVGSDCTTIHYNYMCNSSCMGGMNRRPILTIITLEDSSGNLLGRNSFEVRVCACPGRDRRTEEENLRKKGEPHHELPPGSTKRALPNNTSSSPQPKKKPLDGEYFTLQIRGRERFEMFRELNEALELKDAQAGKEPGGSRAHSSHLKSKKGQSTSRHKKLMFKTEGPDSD
protocol-notes: TOX21_p53_BLA_p3_ratio: Tox21 HCT-116 p53 Agonism Beta-lactamase Assay, Ratio, Phase 3 (AID 2283596)
Results filed as inconclusive are left out. The source made the active and inactive calls. How the source made its calls: active means hit-call score of the fitted dose curve at least 0.9, where 1 is the maximum; inconclusive means response in the unintended direction; inactive means score below 0.9.
Thanks in advance; please answer with one of these: yes (1) (active), no (0) (inactive)

Past entries and their recorded results:
compound | label-class
O=[N+]([O-])c1ccc(Oc2ccc(C(F)(F)F)cc2[N+](=O)[O-])cc1 | no (0)
CCCCC(=O)Cl | no (0)
COc1ccc2c(c1)C13CCCC[C@@H]1C(C2)N(C)CC3 (some centres undefined) | no (0)
CN1CC[C@]23c4c5ccc(O)c4O[C@H]2[C@@H](O)CC[C@H]3[C@H]1C5 | no (0)
CCCN1CCC[C@H](c2cccc(O)c2)C1 | no (0)
CN1C(=O)NC(=O)C(C)(C2=CCCCC2)C1=O (centres undefined) | no (0)

Problem: Recorded test call requested for Clc1ccc(CCC(Cn2ccnc2)Sc2c(Cl)cccc2Cl)cc1 (centres undefined)
Result: yes (1)

Problem: Recorded test call requested for `C[C@@H](Cc1ccccc1)NCCC(c1ccccc1)c1ccccc1`
Result: no (0)

Problem: Recorded test call requested for `C[C@]12CC[C@@H]3c4ccc(OC(=O)N(CCCl)CCCl)cc4CC[C@H]3[C@@H]1CC[C@@H]2O`
Result: yes (1)

Problem: Recorded test call requested for `COc1cccc2c1cc([N+](=O)[O-])c1c(C(=O)O)cc3c(c12)OCO3`
Result: yes (1)

Problem: Recorded test call requested for `Oc1ccc2c3c1O[C@H]1[C@@H](O)C=C[C@H]4[C@@H](C2)NCC[C@@]341`
Result: no (0)

Problem: Recorded test call requested for `C[C@]12CC[C@H](O)C[C@H]1CC[C@@H]1[C@@H]2CC[C@]2(C)[C@@H](c3ccc(=O)oc3)C[C@H]3O[C@]132`
Result: no (0)

Problem: Recorded test call requested for CCC(C)Br (centres undefined)
Result: no (0)
